- tested_target: T1, monkey 4-1BB on CHOK1 cells (monkey)
- T1 construct: whole, on cells; also called CHOK1-c4-1BB
- run_description: FACS, CHOK1-c4-1BB cells; Ab 10 ug/ml
Doc: threshold 600 MFI (exclusive). Items with average fluorescence intensity beneath it return True; others return False.

Use the examples below as a reference point.
binder: 119B6G5 (antibody, V domains shown) VH: EVQLLESGGGLVQPGGSLRLSCAASGFTFSNYAMSWVRQGPGKGLEWVSTIIGSGDSTYYTDSVKGRFTISRDNSKNTLFLQMNSLRAEDTAVYYCARDKSGWYYFDYWGQGTLVTVSS VL: DIQMTQSPSTLSASVGDRVTITCRASQSISNWLAWYQQKPGKAPKLLIYKASSLESGVPSRFSGSGSGTEFTLTISSLQPDDFATYYCQQYNDYFPITFGQGTRLEIK
group: False
//
binder: 100F3C4 (antibody, V domains shown) VH: QVQLQESGPGLVKPSGTLSLTCAVSGGSISSSNWWSWVRQPPGKGLEWIGEIYHSGSTNYNPSLKSRVTMSVDKSKNQFSLELRSVTAADTAVYYCARDAVDAYYYYYGMDVWGQGTTVTVSS VL: DIQLTQSPSFLSASVGDRVTITCRASQGISSYLAWYQQKPGKAPKLLIYAASTLQSGVPSRFSGSGSGTEFTLTISSLQPEDFATYYCQHLNSYPFTFGPGTKVDLK
group: True
//
binder: 118F3A2 (antibody, V domains shown) VH: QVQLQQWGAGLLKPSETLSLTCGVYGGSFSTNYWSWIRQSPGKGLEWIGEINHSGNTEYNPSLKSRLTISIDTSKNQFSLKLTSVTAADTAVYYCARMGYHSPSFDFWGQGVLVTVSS VL: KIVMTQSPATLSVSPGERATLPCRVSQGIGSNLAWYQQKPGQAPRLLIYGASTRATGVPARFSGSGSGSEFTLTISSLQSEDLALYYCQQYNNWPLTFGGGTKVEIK
group: False
//
binder: 172E3E3 (antibody, V domains shown) VH: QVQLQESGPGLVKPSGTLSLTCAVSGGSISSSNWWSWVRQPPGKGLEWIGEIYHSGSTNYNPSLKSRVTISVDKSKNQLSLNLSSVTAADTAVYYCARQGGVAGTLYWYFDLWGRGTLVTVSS VL: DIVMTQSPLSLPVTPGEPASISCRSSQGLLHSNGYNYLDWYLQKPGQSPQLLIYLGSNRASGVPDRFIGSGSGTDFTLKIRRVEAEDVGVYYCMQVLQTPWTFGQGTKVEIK
group: True
//
binder: 170D7F2 (antibody, V domains shown) VH: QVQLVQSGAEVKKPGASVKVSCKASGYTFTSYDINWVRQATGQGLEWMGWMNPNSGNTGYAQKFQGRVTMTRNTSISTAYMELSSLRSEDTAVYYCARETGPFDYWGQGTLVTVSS VL: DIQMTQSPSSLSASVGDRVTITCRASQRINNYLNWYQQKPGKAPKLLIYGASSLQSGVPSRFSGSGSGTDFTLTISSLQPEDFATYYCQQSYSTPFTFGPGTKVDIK
group: False

Query: Consider the binder 113F6C6 (antibody, V domains shown, also called 4-1BB fully human antibody 113F6C6; 113F6F6) VH: QVQLVESGGGVVQPGRSLRLSCAASGLTFSSYGMHWVRQAPGKGLEWVAVIWYDGSNKYYADSVKGRFTISRDNSKNTLYLQMNSLRAEDTAVYYCAREEVLWFGELSYNYYYGMDVWGQGTTVTVSS VL: DIQMTQSPSSLSASVGDRVTITCRASQGISNYLAWYQQKPGKVPKLLIYAASTLQSGVPSRFSGSGSGTDFTLTISSLQPEDVATYYCQKYNSVPLTFGGGTKVEIK . Is its average fluorescence intensity strictly less than 600 MFI?
Response: True

Query: # TODO verify average fluorescence intensity < 600 MFI strictly for this binder: 52F4G2 (antibody, V domains shown) VH: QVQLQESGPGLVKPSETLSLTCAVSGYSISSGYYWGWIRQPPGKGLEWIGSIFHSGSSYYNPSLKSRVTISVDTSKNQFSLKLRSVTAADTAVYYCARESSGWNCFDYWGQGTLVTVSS VL: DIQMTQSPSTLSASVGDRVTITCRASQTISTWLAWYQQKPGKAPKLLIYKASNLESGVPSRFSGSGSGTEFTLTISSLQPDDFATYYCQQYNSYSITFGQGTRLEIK
Response: False

Query: Please check: average fluorescence intensity for 11H10C9 (antibody, V domains shown) VH: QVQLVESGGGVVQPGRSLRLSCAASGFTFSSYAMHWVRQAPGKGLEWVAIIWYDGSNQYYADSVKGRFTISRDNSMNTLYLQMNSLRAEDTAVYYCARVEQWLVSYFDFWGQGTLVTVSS VL: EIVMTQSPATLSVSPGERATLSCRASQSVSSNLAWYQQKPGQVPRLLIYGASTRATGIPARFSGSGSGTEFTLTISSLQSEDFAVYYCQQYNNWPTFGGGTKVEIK , strictly under 600 MFI or not?
Response: False

Query: Record 15G10D4 (antibody, V domains shown) VH: QVQLVESGGGVVQPGRSLRLSCAASGFSFSSYAMHWVRQAPGKGLEWVAIIWYDGSNQYYADSVKGRFTISRDNSKNTLYLQMNSLRAEDTAVYYCARVKQWLVSYFDYWGQGTLVTVSS VL: EIVMTQSPATLSVSPGERATLSCRASQSVSSNLAWYQQKPGQVPRLLIYGASTRATGIPARFSGSGSGTEFSLIISSLQSEDFAVYYCQQYNNWPTFGGGTKVEIK : is its average fluorescence intensity strictly below 600 MFI?
Response: True

Query: Say whether its average fluorescence intensity is strictly beneath 600 MFI. Entry: 57B3D10 (antibody, V domains shown, also called 4-1BB fully human antibody 57B3D10) VH: QVQLQESGPGLVKPSETLSLTCTVSGGSISSYYWSWIRQPPGKGLEWIGYIYYSGSTNYNPSLKSRVTISVDTSKSQFSLKLTSVTAADTAVYYCAKDSDYYGSGSYSYWYFDLWGRGTLVTVSS VL: EIVMTQSPATLSVSPGERATLSCRASQSVSSNLAWYQQKPGQAPRLLIYGASTRAPGIPARFSGSGSGTEFTLTISSLQSEDFAVYYCQQYNNWPLTFGGGTKVEIK
Response: True
